test: Stability in alpha MEM at 37 degC after 24 hrs; assay type: physicochemical; conditions: read-out: Stability
Field 'label' (enum: met / not met). Set to met when remaining at 24 h is strictly under 70%; else not met.

compound	label
CS(=O)(=O)NC(=O)c1cc(N(CCCl)CCCl)c([N+](=O)[O-])cc1[N+](=O)[O-]	not met
O=C(NCC(O)CO)c1cc(N(CCBr)CCBr)c([N+](=O)[O-])cc1[N+](=O)[O-] (centres undefined)	not met
CS(=O)(=O)OCCN(CCBr)c1cc(C(=O)NO)c([N+](=O)[O-])cc1[N+](=O)[O-]	met
CS(=O)(=O)c1cc([N+](=O)[O-])c(N(CCCl)CCCl)cc1C(N)=O	not met
CS(=O)(=O)OCCN(CCOS(C)(=O)=O)c1cc(C(=O)NCC(O)CO)c([N+](=O)[O-])cc1[N+](=O)[O-] (centres undefined)	met
NC(=O)c1cc(N(CCCl)CCBr)c([N+](=O)[O-])cc1[N+](=O)[O-]	met
NC(=O)c1cc(N(CCCl)CCCl)c([N+](=O)[O-])cc1[N+](=O)[O-]	not met
CS(=O)(=O)OCCN(CCCl)c1cc(C(=O)NCC(O)CO)c([N+](=O)[O-])cc1[N+](=O)[O-] (centres undefined)	not met
O=C(NCCO)c1cc(N(CCI)CCI)c([N+](=O)[O-])cc1[N+](=O)[O-]	met
